Items are presented alongside their recorded Dmax.
# study_target: CBP (Homo sapiens, UniProt Q92793)
# Construct: host or cells: A549 CBP HiBit cells
# Sequence (Q92793 whole entry): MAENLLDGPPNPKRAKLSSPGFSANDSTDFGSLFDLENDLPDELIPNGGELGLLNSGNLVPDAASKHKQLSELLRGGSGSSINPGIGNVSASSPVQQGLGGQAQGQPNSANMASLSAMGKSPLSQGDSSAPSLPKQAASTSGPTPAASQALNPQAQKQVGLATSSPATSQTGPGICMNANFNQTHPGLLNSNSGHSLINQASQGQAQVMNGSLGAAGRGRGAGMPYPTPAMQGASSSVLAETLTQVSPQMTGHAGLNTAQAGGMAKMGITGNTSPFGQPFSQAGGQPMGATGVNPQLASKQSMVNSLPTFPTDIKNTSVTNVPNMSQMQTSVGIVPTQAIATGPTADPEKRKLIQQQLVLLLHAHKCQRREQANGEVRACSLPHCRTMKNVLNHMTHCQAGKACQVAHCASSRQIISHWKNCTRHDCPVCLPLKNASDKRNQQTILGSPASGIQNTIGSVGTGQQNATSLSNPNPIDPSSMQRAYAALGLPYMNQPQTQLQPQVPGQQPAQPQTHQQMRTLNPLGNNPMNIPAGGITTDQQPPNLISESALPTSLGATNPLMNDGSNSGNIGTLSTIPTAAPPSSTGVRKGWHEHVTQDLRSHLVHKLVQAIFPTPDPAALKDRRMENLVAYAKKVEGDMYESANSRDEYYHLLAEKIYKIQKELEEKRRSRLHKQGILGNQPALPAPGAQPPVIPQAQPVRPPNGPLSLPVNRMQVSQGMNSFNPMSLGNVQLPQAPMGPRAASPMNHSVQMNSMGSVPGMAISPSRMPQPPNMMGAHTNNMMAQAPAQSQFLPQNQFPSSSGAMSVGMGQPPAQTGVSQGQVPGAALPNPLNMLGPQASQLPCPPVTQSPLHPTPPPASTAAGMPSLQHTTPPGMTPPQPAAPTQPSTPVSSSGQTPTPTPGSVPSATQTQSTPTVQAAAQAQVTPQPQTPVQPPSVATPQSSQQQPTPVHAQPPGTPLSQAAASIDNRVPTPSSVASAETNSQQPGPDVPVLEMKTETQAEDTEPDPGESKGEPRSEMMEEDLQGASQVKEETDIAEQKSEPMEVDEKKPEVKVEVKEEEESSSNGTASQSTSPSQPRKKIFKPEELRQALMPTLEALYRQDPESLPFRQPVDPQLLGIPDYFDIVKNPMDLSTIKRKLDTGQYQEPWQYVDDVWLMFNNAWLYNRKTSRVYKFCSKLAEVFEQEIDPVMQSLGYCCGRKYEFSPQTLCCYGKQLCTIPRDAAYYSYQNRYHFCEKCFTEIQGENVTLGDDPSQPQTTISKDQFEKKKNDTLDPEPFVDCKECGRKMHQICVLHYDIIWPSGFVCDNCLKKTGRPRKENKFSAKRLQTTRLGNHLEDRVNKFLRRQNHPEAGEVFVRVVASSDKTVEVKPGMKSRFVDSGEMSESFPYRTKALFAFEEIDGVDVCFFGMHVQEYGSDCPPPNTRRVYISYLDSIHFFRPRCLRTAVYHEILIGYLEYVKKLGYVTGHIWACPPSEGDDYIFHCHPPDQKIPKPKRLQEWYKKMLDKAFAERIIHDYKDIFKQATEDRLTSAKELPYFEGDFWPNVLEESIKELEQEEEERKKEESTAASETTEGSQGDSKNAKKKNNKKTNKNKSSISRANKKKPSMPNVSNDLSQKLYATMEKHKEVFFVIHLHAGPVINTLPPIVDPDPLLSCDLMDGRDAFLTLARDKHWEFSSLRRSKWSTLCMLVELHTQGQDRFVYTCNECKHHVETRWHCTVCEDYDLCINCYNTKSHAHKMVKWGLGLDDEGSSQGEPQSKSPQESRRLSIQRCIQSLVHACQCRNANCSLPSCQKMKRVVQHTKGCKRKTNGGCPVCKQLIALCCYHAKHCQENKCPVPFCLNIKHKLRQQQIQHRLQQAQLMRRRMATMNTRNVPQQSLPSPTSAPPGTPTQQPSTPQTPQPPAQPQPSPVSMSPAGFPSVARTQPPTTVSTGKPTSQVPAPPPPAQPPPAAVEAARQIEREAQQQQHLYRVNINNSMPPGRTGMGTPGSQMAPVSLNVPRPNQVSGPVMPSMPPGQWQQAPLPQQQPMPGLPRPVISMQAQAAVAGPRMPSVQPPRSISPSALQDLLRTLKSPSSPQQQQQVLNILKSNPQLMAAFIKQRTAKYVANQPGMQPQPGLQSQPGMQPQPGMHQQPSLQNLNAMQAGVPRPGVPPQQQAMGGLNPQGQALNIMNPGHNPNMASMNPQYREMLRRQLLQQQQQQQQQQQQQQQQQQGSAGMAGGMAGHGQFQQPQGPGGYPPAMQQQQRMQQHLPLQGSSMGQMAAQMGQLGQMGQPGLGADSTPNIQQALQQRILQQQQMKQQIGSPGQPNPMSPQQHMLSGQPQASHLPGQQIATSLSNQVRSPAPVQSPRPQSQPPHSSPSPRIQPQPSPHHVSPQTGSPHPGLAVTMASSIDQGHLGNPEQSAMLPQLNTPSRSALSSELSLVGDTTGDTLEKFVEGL
# assay_protocol: CBP degradation, HiBit technology in A549 CBP HiBit cells (24 h)
# Assay type: cell-based
# condition_set: 24 hrs post treatment

These recorded examples may help you get a feel for the data.
compound: CC(C)c1cc(-c2cccc3cc(-c4ccc(C(=O)NCC#Cc5cc6c(F)ccc(C7CCC(=O)NC7=O)c6o5)nc4)ncc23)cc2c1n(C)c(=O)n2C (stereo not drawn)
result: < 20%

compound: Cc1cc(-c2cc3cccc(-c4ccc5c(c4)n(C)c(=O)n5C)c3cn2)cnc1C(=O)NCC#Cc1cc2c(C3CCC(=O)NC3=O)cccc2o1 (stereo not drawn)
result: < 20%

compound: CC(C)c1cc(-c2cccc3cc(-c4ccc(C(=O)NCC#Cc5ccc6cnn(C7CCC(=O)NC7=O)c6c5Cl)nc4)ncc23)cc2c1n(C)c(=O)n2C (stereo not drawn)
result: 20 to 39%

compound: Cc1cc2c(N3CCOc4cc(-c5ccc(C(=O)NCC#Cc6ccc7occ(C8CCC(=O)NC8=O)c7c6)nc5)c(F)cc43)cc(N3CC4(COC4)C3)cc2n(C)c1=O (stereo not drawn)
result: < 20%

compound: CC(C)c1cc(-c2cccc3cc(-c4ccc(C(=O)NCC#Cc5ccc6cnn(C7CCC(=O)NC7=O)c6c5)nc4)ncc23)cc2c1n(C)c(=O)n2C (stereo not drawn)
result: 20 to 39%

From here, focus on the item given below.
Req: Need Dmax, item Cc1cc(-c2cc3cccc(-c4cc(C(C)C)c5c(c4)n(C)c(=O)n5C)c3cn2)cnc1C(=O)NCC#Cc1ccc2occ(C3CCC(=O)NC3=O)c2c1 (stereo not drawn)
Resp: 20 to 39%

* * *

# study_target: p300 (Homo sapiens)
# Construct: host or cells: A549 P300 HiBit cells
# Sequence (Q09472 whole entry): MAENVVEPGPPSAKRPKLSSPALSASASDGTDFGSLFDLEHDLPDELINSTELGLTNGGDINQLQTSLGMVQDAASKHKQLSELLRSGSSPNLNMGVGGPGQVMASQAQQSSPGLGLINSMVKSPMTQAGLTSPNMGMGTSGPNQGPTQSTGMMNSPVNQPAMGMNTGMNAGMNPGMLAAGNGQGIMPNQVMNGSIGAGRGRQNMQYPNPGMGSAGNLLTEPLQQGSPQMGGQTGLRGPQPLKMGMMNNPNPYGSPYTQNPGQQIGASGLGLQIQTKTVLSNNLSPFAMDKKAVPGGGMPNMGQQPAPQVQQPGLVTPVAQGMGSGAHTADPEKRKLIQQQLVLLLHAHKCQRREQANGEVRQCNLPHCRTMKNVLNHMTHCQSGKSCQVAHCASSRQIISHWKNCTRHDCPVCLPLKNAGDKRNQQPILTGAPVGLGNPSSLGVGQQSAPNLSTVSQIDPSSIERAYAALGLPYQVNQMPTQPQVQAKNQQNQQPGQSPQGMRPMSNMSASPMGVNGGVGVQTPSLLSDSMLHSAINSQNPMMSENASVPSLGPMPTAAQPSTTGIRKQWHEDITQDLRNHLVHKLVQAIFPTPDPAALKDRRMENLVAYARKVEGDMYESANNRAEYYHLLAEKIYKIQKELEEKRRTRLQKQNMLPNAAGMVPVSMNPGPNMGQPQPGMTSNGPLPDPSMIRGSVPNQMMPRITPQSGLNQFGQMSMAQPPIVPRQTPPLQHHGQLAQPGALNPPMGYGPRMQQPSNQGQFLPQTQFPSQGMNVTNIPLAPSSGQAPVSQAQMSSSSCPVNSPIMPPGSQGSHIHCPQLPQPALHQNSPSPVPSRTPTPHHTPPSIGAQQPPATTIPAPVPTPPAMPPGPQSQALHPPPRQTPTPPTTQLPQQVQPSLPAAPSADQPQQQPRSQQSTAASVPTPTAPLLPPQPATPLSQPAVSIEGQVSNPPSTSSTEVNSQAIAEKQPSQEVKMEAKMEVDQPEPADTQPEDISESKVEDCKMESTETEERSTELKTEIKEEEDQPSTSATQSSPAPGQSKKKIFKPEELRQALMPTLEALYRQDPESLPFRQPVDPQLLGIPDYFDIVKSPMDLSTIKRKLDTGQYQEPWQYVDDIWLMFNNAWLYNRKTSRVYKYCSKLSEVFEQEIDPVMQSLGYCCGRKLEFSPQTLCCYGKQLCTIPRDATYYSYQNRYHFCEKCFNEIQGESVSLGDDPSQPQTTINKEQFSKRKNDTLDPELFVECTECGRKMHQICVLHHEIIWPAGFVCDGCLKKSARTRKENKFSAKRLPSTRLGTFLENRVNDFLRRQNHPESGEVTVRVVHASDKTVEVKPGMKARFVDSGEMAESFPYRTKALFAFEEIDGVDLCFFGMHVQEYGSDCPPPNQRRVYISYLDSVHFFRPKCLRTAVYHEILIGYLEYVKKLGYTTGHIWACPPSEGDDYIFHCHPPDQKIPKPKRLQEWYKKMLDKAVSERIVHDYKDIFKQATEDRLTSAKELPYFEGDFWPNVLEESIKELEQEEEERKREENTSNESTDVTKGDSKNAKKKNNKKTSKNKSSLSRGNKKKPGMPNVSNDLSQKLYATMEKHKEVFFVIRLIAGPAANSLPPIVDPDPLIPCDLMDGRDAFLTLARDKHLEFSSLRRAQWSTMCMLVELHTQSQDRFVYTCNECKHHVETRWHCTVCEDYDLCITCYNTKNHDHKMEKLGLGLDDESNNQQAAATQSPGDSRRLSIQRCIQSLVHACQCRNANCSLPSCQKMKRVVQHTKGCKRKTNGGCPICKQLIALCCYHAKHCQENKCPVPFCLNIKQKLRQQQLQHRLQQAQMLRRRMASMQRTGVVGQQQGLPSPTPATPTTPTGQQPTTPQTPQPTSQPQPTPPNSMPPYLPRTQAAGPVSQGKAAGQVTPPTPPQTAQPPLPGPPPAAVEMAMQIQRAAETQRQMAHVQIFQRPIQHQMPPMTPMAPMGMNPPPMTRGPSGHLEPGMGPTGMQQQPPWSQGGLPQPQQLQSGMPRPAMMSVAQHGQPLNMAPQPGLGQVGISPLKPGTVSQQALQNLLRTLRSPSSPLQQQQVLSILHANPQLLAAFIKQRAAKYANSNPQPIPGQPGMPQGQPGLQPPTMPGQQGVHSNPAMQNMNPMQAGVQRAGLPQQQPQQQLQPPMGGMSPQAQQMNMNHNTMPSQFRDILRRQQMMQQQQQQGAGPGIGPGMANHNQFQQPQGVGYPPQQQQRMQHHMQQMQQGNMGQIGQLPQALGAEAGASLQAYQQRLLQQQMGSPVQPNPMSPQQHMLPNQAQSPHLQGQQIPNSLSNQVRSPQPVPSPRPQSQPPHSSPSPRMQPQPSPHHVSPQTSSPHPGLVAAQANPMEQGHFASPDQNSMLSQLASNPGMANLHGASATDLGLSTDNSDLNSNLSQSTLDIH
# assay_protocol: P300 degradation, HiBit technology in A549 P300 HiBit cells (2 h)
# Assay type: cell-based
# condition_set: A549 P300 HiBit cells, 2 hrs post treatment
# Description: p300 and CBP degradation potency and Dmax were determined using in cell western (ICW) assay technology in H1299 cells or HiBit technology in A549 HiBit cells. A549 P300 HiBit and A549 CBP HiBit cells were plated in separate 384-well, TC treated, white-opaque, flat-bottomed microplate. […] After incubation, luminescent signal of each plate was measured using the Envision instrument (Perkin Elmer).
Items are presented alongside their recorded DC50.

These recorded examples may help you get a feel for the data.
compound: Cn1c(=O)n(C)c2cc(-c3cccc4cc(-c5ccc(C(=O)NCC#Cc6cc7c([C@H]8CCC(=O)NC8=O)cccc7o6)nc5)ncc34)ccc21
result: < 1 nM
--
compound: COc1cc(N2CCOc3cc(-c4ccc(C(=O)NCC#Cc5ccc6occ(C7CCC(=O)NC7=O)c6c5)nc4)ncc32)c2cc(C)c(=O)n(C)c2c1 (centres unmarked)
result: < 1 nM
--
compound: Cc1cc2c(N3CCCc4nc(-c5ccc(C(=O)NCC#Cc6ccc7occ([C@H]8CCC(=O)NC8=O)c7c6)nc5)ncc43)cc(C3CCOCC3)cc2n(C)c1=O
result: < 1 nM
--
compound: Cc1cc2c(N3CCCc4nc(-c5ccc(C(=O)NCC#Cc6nc7cccc(C8CCC(=O)NC8=O)n7n6)nc5)ncc43)cc(C3CCOCC3)cc2n(C)c1=O (centres unmarked)
result: 10 to 99 nM
--
compound: Cc1cc2c(N3CCCc4cc(-c5ccc(C(=O)NCC#Cc6cc7c(C8CCC(=O)NC8=O)nccc7o6)nc5)nnc43)cc(C3CCOCC3)cc2n(C)c1=O (centres unmarked)
result: < 1 nM

From here, focus on the item given below.
Req: Need DC50, item Cc1cc(N2CCCc3nc(-c4ccc(C(=O)NCC#Cc5ccc6occ(C7CCC(=O)NC7=O)c6c5)nc4)ncc32)cc2c1n(C)c(=O)n2C (centres unmarked)
Resp: 1 to 9.9 nM

* * *

Items are presented alongside their recorded DC50.
# study_target: CBP (Homo sapiens, UniProt Q92793)
# Construct: host or cells: A549 CBP HiBit cells
# assay_protocol: CBP degradation, HiBit technology in A549 CBP HiBit cells (24 h)
# Format: cell-based
# condition_set: 24 hrs post treatment

compound: Cc1cc2c(N3CCCc4nc(-c5ccc(C(=O)NCC#Cc6ccc7occ([C@H]8CCC(=O)NC8=O)c7c6)nc5)ncc43)nc(N3CCOCC3)cc2n(C)c1=O
DC50: > 1000 nM
//
compound: COc1cc(N2CCOc3cc(-c4ccc(C(=O)NCC#Cc5ccc6occ(C7CCC(=O)NC7=O)c6c5)nc4)ncc32)c2cc(C)c(=O)n(C)c2c1 (stereo not shown)
DC50: 100 to 999 nM
//
compound: CC(C)c1cc(-c2cccc3cc(-c4ccc(C(=O)NCC#Cc5ccc6c(c5)n(C)c(=O)n6C5CCC(=O)NC5=O)nc4)ncc23)cc2c1n(C)c(=O)n2C (stereo not shown)
DC50: > 1000 nM
//
compound: Cc1cc2c(-c3cccc4cc(-c5ccc(C(=O)NCC#Cc6ccc7occ(C8CCC(=O)NC8=O)c7c6)nc5)ncc34)nc(N3CCOCC3)cc2n(C)c1=O (stereo not shown)
DC50: 10 to 99 nM
//
compound: Cc1cc2c(N3CCCc4nc(-c5ccc(C(=O)NCC#Cc6ccc7occ(C8CCC(=O)NC8=O)c7c6)nc5)ncc43)cccc2n(C)c1=O (stereo not shown)
DC50: > 1000 nM
//
compound: Cn1c(=O)n(C)c2cc(-c3cccc4cc(-c5ccc(C(=O)NCC#Cc6cc7c([C@@H]8CCC(=O)NC8=O)cccc7o6)nc5)ncc34)ccc21
DC50: > 1000 nM
//
compound: Cn1c(=O)n(C)c2ncc(-c3cccc4cc(-c5ccc(C(=O)NCC#Cc6cc7c(C8CCC(=O)NC8=O)cccc7o6)nc5)ncc34)cc21 (stereo not shown)
DC50: 100 to 999 nM
//
compound: Cc1cc(-c2cc3cccc(-c4ccc5c(c4)n(C)c(=O)n5C)c3cn2)cnc1C(=O)NCC#Cc1cc2c(C3CCC(=O)NC3=O)cccc2o1 (stereo not shown)
DC50: > 1000 nM

Req: Need DC50, item Cc1cc2c(N3CCN(C)c4nc(-c5ccc(C(=O)NCC#Cc6cc7c(C8CCC(=O)NC8=O)nccc7o6)nc5)ncc43)cccc2n(C)c1=O (stereo not shown)
Resp: 1 to 9.9 nM

Req: Again, but for Cn1c(=O)n(C)c2c(N3CC4CC(C3)O4)nc(-c3cccc4cc(-c5ccc(C(=O)NCC#Cc6cc7c(C8CCC(=O)NC8=O)cccc7o6)nc5)ncc34)cc21 (stereo not shown)
Resp: > 1000 nM

Req: Again, but for Cc1cc2c(N3CCCc4cc(-c5ccc(C(=O)NCC#Cc6cc7c(C8CCC(=O)NC8=O)nccc7o6)nc5)nnc43)cc(C3CCOCC3)cc2n(C)c1=O (stereo not shown)
Resp: 100 to 999 nM

Req: Again, but for Cn1c(=O)n(C)c2c(C3CC3)cc(-c3cccc4cc(-c5ccc(C(=O)NCC#Cc6cc7c(C8CCC(=O)NC8=O)cccc7o6)nc5)ncc34)cc21 (stereo not shown)
Resp: > 1000 nM

Req: Again, but for CC(C)c1cc(-c2cccc3cc(-c4ccc(C(=O)NCC#Cc5cc6c(C7CCC(=O)NC7=O)cccc6o5)nc4)ncc23)cc2c1n(C)c(=O)n2C (stereo not shown)
Resp: > 1000 nM

Req: Again, but for Cc1c(-c2ccc(C(=O)NCC#Cc3ccc4occ(C5CCC(=O)NC5=O)c4c3)nc2)ncc2c(-c3ccc4c(c3)n(C)c(=O)n4C)cccc12 (stereo not shown)
Resp: 100 to 999 nM

* * *

Items are presented alongside their recorded Dmax.
# study_target: CBP (Homo sapiens, UniProt Q92793)
# Construct: host or cells: A549 CBP HiBit cells
# assay_protocol: CBP degradation, HiBit technology in A549 CBP HiBit cells (24 h)
# Assay type: cell-based
# condition_set: 24 hrs post treatment

compound: Cc1cc2c(N3CCCc4nc(-c5ccc(C(=O)NCC#Cc6cc7c([C@H]8CCC(=O)NC8=O)cccc7o6)nc5)ncc43)cc(C3CCOCC3)nc2n(C)c1=O [Example B48]
measured_attribute: Dmax
result: < 20%

Req: Report Dmax for Cc1cc(-c2ccc3c(c2)n(C)c(=O)n3C)c2cnc(-c3ccc(C(=O)NCC#Cc4ccc5occ(C6CCC(=O)NC6=O)c5c4)nc3)cc2c1 (stereo not drawn) [Example A84] tested on CBP (Homo sapiens, UniProt Q92793).
Resp: < 20%

Req: Again, but for Cc1cc2c(N3CCCc4nc(-c5ccc(C(=O)NCC#Cc6cc7c(C8CCC(=O)NC8=O)cccc7o6)nc5)ncc43)cc(C3(F)CCOCC3)cc2n(C)c1=O (stereo not drawn) [Example B82]
Resp: < 20%

Req: Again, but for CC(C)c1cc(C2=CC(C)(C)Oc3cc(-c4ccc(C(=O)NCC#Cc5ccc6occ(C7CCC(=O)NC7=O)c6c5)nc4)c(F)cc32)cc2c1n(C)c(=O)n2C (stereo not drawn) [Example A57]
Resp: < 20%

Req: Again, but for Cc1cc(-c2cc3c(cn2)N(c2cccc4c2cc(C)c(=O)n4C)CCO3)cnc1C(=O)NCC#Cc1ccc2occ(C3CCC(=O)NC3=O)c2c1 (stereo not drawn) [Example B83]
Resp: 40 to 59%

Req: Again, but for CN1CCN(c2ccc3c(c2)n(C)c(=O)n3C)c2cnc(-c3ccc(C(=O)NCC#Cc4ccc5occ(C6CCC(=O)NC6=O)c5c4)nc3)nc21 (stereo not drawn) [Example A122]
Resp: < 20%
